test: qHTS of pediatric cancer cell lines to identify multiple opportunities for drug repurposing: Primary screen for LAN-5 cells (AID 1347100)
study-conditions: LAN-5 neuroblastoma viability, CellTiter-Glo luminescence, 48 h; series mostly up to 46 µM
Records with an inconclusive call do not appear. Calls of active or inactive are those of the source. Calls come from the whole dose curve; as a rule, active = well fitted cell-killing curve with a large enough effect; inconclusive = small, poorly fitted or top-dose-only effect; inactive = no such curve, though single readings can be large or run the other way.
Labels: true for active, false for inactive

[
  {
    "smiles-notation": "COc1ccc(-c2coc3cc(O)cc(O)c3c2=O)cc1",
    "label-value": "false"
  },
  {
    "smiles-notation": "COc1ccc2c(Oc3ccc(NC(=O)c4c(C)n(CC(C)(C)O)n(-c5ccccc5)c4=O)nc3)ccnc2c1",
    "label-value": "false"
  },
  {
    "smiles-notation": "Oc1ccc(C2CCN(c3ccnc4ccccc34)CC2)cc1O",
    "label-value": "true"
  },
  {
    "smiles-notation": "O=C(NCCN1CCOCC1)c1ccc(Cl)cc1",
    "label-value": "false"
  },
  {
    "smiles-notation": "NCCS",
    "label-value": "false"
  },
  {
    "smiles-notation": "O=C(O)c1cc(-c2ccccc2)nc2ccccc12",
    "label-value": "false"
  },
  {
    "smiles-notation": "COc1ccc(-c2cc(=O)c3c(O)cc(O)cc3o2)cc1O",
    "label-value": "true"
  },
  {
    "smiles-notation": "CC(C)(C(=O)NCC(F)(F)C(F)(F)F)C(=O)N[C@@H]1C(=O)Nc2ccccc2-c2ccccc21",
    "label-value": "true"
  },
  {
    "smiles-notation": "NC(N)=Nc1nc(CSCC/C(N)=N/S(N)(=O)=O)cs1",
    "label-value": "false"
  },
  {
    "smiles-notation": "C[C@H]1[C@H](NC(=O)C(=NOC(C)(C)C(=O)O)c2csc(N)n2)C(=O)N1S(=O)(=O)O",
    "label-value": "false"
  }
]

Reference source: PubChem BioAssay (NCATS)
